Test system: HELAN: sunflower (Helianthus annuus)
protocol.summary: Post-Emergent Test II herbicidal activity
Type: in vivo
condition.description: post-emergence, 336 h, 70 g ai/ha, 14 days, read-out: Visual Growth Reduction (%) 14 Days After Application HELAN

# molecule.smiles, experimental.target, pest or weed control at 70 g/ha
records = [
    ("COC(=O)c1nc(-c2cc3nonc3cc2F)c(F)c(N)c1Cl", "HELAN: sunflower (Helianthus annuus)", "85 to 94%"),
    ("COC(=O)c1nc(-c2ccc3nonc3c2OC)cc(N)c1Cl", "HELAN: sunflower (Helianthus annuus)", "0 to 29%"),
    ("COC(=O)c1nc(-c2cccc3nonc23)cc(N)c1Cl", "HELAN: sunflower (Helianthus annuus)", "30 to 44%"),
    ("COC(=O)c1nc(-c2ccc3nsnc3c2)c(F)c(N)c1Cl", "HELAN: sunflower (Helianthus annuus)", "85 to 94%"),
    ("COC(=O)c1nc(-c2ccc3nonc3c2C)cc(N)c1Cl", "HELAN: sunflower (Helianthus annuus)", "45 to 59%"),
]

====

The compounds listed here are annotated with their pest or weed control at 35 g/ha.
System: SETFA: giant foxtail (Setaria faberi)
protocol.summary: Post-Emergent Test II herbicidal activity
Format: in vivo
condition.description: post-emergence, 336 h, 35 g ai/ha, 14 days, read-out: Visual Growth Reduction (%) 14 Days After Application SETFA

# compound, pest or weed control at 35 g/ha
measured = [
    ("COC(=O)c1nc(-c2ccc3nsnc3c2)c(F)c(N)c1Cl [Compound 11]", "45 to 59%"),
    ("COC(=O)c1nc(-c2cc3nonc3cc2F)cc(N)c1Cl [Compound 4]", "60 to 74%"),
    ("COC(=O)c1nc(-c2cccc3nonc23)cc(N)c1Cl [Compound 16]", "0 to 29%"),
    ("COC(=O)c1nc(-c2cc3nonc3cc2F)c(F)c(N)c1Cl [Compound 3]", "45 to 59%"),
    ("COC(=O)c1nc(-c2cc3nonc3cc2Cl)cc(N)c1Cl [Compound 8]", "0 to 29%"),
    ("COc1cc2nonc2cc1-c1cc(N)c(Cl)c(C(=O)O)n1 [Compound 5]", "0 to 29%"),
    ("COC(=O)c1nc(-c2ccc3nonc3c2C)cc(N)c1Cl [Compound 17]", "0 to 29%"),
    ("COC(=O)c1nc(-c2ccc3nonc3c2Cl)cc(N)c1Cl [Compound 18]", "0 to 29%"),
    ("COC(=O)c1nc(-c2cc3nonc3cc2F)nc(N)c1OC [Compound 10]", "0 to 29%"),
    ("COC(=O)c1nc(-c2ccc3nsnc3c2F)cc(N)c1Cl [Compound 14]", "0 to 29%"),
]

====

Tested on: ZEAMX: maize, corn (Zea mays)
protocol.summary: Post-Emergent Test II herbicidal activity
Format: in vivo
condition.description: post-emergence, 336 h, 140 g ai/ha, 14 days, read-out: Visual Growth Reduction (%) 14 Days After Application ZEAMX

# molecule.smiles, experimental.target, pest or weed control at 140 g/ha
data = [
    ("COC(=O)c1nc(-c2ccc3nonc3c2Cl)cc(N)c1Cl", "ZEAMX: maize, corn (Zea mays)", "0 to 29%"),
    ("COC(=O)c1nc(-c2cc3nonc3cc2F)nc(N)c1OC", "ZEAMX: maize, corn (Zea mays)", "0 to 29%"),
    ("COC(=O)c1nc(-c2ccc3nonc3c2C)cc(N)c1Cl", "ZEAMX: maize, corn (Zea mays)", "0 to 29%"),
]
